Source: PubChem BioAssay AID1919017

- System: SW1271 complex spheroids with HUVEC/MSC, growth, % test/control
- EXPERIMENT_NOTES: Anticancer human tumor SW1271 cell line growth inhibition [AhR];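 also: spheroids exposed to agents for 7 days before readout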
- EXPERIMENTAL_CONDITIONS: second compound 10 µM; first compound 3 µM; stronger effect = lower value
viability, T/C for assorted compounds
Numbers only here, please. The scale is %.

Consider the worked cases shown below.
COMPOUND	VALUE_UNITS	READING
O=C(C=Cn1cnc(-c2cc(C(F)(F)F)cc(C(F)(F)F)c2)n1)NNc1cnccn1 + Cc1cncc(-c2nc(NCCc3c[nH]c4ccccc34)c3ncn(C(C)C)c3n2)c1	%	47.7
O=C(C=Cn1cnc(-c2cc(C(F)(F)F)cc(C(F)(F)F)c2)n1)NNc1cnccn1 + CC(CO)NC(=O)c1cc(-c2ccc(Cl)cc2)nn(-c2cnn(C)c2)c1=O	%	27
CCN(c1cc(-c2ccc(CN3CCOCC3)cc2)cc(C(=O)NCc2c(C)cc(C)[nH]c2=O)c1C)C1CCOCC1 + CC(CO)NC(=O)c1cc(-c2ccc(Cl)cc2)nn(-c2cnn(C)c2)c1=O	%	79.4
CCN(c1cc(-c2ccc(CN3CCOCC3)cc2)cc(C(=O)NCc2c(C)cc(C)[nH]c2=O)c1C)C1CCOCC1 + Cc1cncc(-c2nc(NCCc3c[nH]c4ccccc34)c3ncn(C(C)C)c3n2)c1	%	6.84
O=C(C=Cn1cnc(-c2cc(C(F)(F)F)cc(C(F)(F)F)c2)n1)NNc1cnccn1 + Cc1ccccc1N=Nc1ccc(NC(=O)c2ccnn2C)c(C)c1	%	45.7

Continue with the next compound.
viability, T/C on SW1271 complex spheroids with HUVEC/MSC, growth, % test/control for CCN(c1cc(-c2ccc(CN3CCOCC3)cc2)cc(C(=O)NCc2c(C)cc(C)[nH]c2=O)c1C)C1CCOCC1 + Cc1ccccc1N=Nc1ccc(NC(=O)c2ccnn2C)c(C)c1 is 118
